Tgt: protochlorophyllide oxidoreductase (POR) (Thermosynechococcus vestitus, UniProt Q8DLC1, R38V)
Construct: recombinant, overexpressed in Escherichia coli, purified as in earlier work
Sequence (Q8DLC1 entry or part of it R38V): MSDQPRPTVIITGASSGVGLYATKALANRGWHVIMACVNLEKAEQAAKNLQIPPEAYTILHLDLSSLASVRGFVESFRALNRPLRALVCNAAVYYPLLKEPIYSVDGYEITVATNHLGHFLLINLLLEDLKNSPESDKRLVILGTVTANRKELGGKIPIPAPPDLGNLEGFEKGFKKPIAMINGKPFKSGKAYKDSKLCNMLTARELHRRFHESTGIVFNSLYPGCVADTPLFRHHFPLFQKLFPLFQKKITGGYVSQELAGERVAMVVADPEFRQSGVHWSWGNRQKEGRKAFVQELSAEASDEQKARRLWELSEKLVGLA
Procedure details: FRET from protein Trp to bound NADPH
Parameter: pKd
// returns pKd (minus log10 of molar concentration), number only

Find the recorded pKd belonging to NC(=O)C1=CN([C@@H]2O[C@H](COP(=O)(O)OP(=O)(O)OC[C@H]3O[C@@H](n4cnc5c(N)ncnc54)[C@H](OP(=O)(O)O)[C@@H]3O)[C@@H](O)[C@H]2O)C=CC1 and report it.
6.39

====

Tgt: protochlorophyllide oxidoreductase (POR) (Thermosynechococcus vestitus, UniProt Q8DLC1, G19A)
Construct: recombinant, overexpressed in Escherichia coli, purified as in earlier work
Sequence (Q8DLC1 entry or part of it G19A): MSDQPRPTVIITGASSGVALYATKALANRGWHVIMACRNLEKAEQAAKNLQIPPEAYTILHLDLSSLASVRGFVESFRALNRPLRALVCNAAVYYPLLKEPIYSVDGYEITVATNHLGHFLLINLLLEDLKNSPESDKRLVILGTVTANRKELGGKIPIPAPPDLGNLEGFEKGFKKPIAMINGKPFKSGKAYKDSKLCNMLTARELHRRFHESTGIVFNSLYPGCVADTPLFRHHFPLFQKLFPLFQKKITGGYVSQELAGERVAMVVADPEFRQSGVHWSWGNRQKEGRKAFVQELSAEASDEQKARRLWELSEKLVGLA
Procedure details: FRET from protein Trp to bound NADPH
Parameter: Kd
# number then unit; no other words

Fill in: Kd of NC(=O)C1=CN([C@@H]2O[C@H](COP(=O)(O)OP(=O)(O)OC[C@H]3O[C@@H](n4cnc5c(N)ncnc54)[C@H](OP(=O)(O)O)[C@@H]3O)[C@@H](O)[C@H]2O)C=CC1 is ___
182 nM

Values compiled from paper PMC4970445.
